# chromatographic logP listing for each entry below
- protocol_description: log P determination by HPLC on reversed-phase columns (EEC Directive 79/831 Annex V.A8)
- Assay type: physicochemical
- condition_context: pH 2.7
- Method: Determination by LC-MS in the acidic range takes place at a pH of 2.7 using 0.1% aqueous formic acid and acetonitrile (containing 0.1% formic acid) as eluents, with a linear gradient from 10% acetonitrile to 95% acetonitrile. Calibration was carried out using unbranched alkan-2-ones (having 3 to 16 carbon atoms) with known log P values (the log P values are determined from the retention times by linear interpolation between two successive alkanones).
Just the number, please, no unit attached.

• CNC(=O)c1cc(C#N)cc(C)c1NC(=O)c1cc(Cn2nc3c(Cl)c(Cl)c(Cl)c(Cl)c3n2)nn1-c1ncccc1Cl [Example 93] = 4.24
• Cc1cc(Cl)cc(C(=O)NC(C)C)c1NC(=O)c1cc(Cn2ccnn2)nn1-c1ncccc1Cl [Example 116] = 2.12
• CNC(=O)c1cc(Cl)cc(C)c1NC(=O)c1cc(Cn2cc(-c3cccc(Cl)c3)nn2)nn1-c1ncccc1Cl [Example 20] = 3.11

## Task Tell me the measured chromatographic logP of Cc1cc(Cl)cc(C(=O)NC(C)(C)C)c1NC(=O)c1cc(Cn2ncc(C3CC3)n2)nn1-c1ncccc1Cl [Example 46] , please.
## Result 3.6

* * *

# chromatographic logP listing for each entry below
- protocol_description: log P determination by HPLC on reversed-phase columns (EEC Directive 79/831 Annex V.A8)
- Type: physicochemical
- condition_context: pH 2.7
Just the number, please, no unit attached.

## Task Tell me the measured chromatographic logP of Cc1cc(C#N)cc(C(=O)NCC2CC2)c1NC(=O)c1cc(Cn2ncc(C(F)(F)F)n2)nn1-c1ncccc1Cl [Example 130] , please.
## Result 3.17

## Task Consider next the molecule CNC(=O)c1cc(Cl)cc(C)c1NC(=O)c1cc(Cn2cc(C(F)(F)F)nn2)nn1-c1ncccc1Cl [Example 187] in the same way.
## Result 2.6

## Task Consider next the molecule Cc1cc(Cl)cc(C(=O)NC2CC2)c1NC(=O)c1cc(Cn2cc(C(F)(C(F)(F)F)C(F)(F)F)nn2)nn1-c1ncccc1Cl [Example 232] in the same way.
## Result 3.61

## Task Consider next the molecule Cc1cc(C#N)cc(C(=O)NC(C)(C)C)c1NC(=O)c1cc(Cn2nnc3cc(C(F)(F)F)ccc32)nn1-c1ncccc1Cl [Example 113] in the same way.
## Result 3.5

## Task Consider next the molecule Cc1cc(C#N)cc(C(=O)NCC#N)c1NC(=O)c1cc(Cn2ncc(C(F)(F)F)n2)nn1-c1ncccc1Cl [Example 132] in the same way.
## Result 2.76

## Task Consider next the molecule Cc1cc(C#N)cc(C(=O)NC(C)(C)C)c1NC(=O)c1cc(Cn2ncc(-c3ccc(F)cc3)n2)nn1-c1ncccc1Cl [Example 61] in the same way.
## Result 3.72

## Task Consider next the molecule Cc1cc(I)cc(C(=O)NCC2CC2)c1NC(=O)c1cc(Cn2ncc(C(F)(F)F)n2)nn1-c1ncccc1Cl [Example 163] in the same way.
## Result 3.8

* * *

# chromatographic logP listing for each entry below
- protocol_description: log P determination by HPLC on reversed-phase columns (EEC Directive 79/831 Annex V.A8)
- Assay type: physicochemical
- condition_context: reversed-phase C18 HPLC column, pH 2.7; HPLC on reversed-phase columns (C 18), EEC Directive 79/831 Annex V.A8; read-out: logP
- Description: Determination by LC-MS in the acidic range takes place at a pH of 2.7 using 0.1% aqueous formic acid and acetonitrile (containing 0.1% formic acid) as eluents, with a linear gradient from 10% acetonitrile to 95% acetonitrile. Calibration was carried out using unbranched alkan-2-ones (having 3 to 16 carbon atoms) with known log P values (the log P values are determined from the retention times by linear interpolation between two successive alkanones).
Just the number, please, no unit attached.

As a guide, the following entries are already answered.
* CSC[C@H](C)NC(=O)c1cc(C#N)cc(C)c1NC(=O)c1cc(Cn2cc(C(F)(C(F)(F)F)C(F)(F)F)nn2)nn1-c1ncccc1Cl | 3.63
* CSC[C@H](C)NC(=O)c1cc(I)cc(C)c1NC(=O)c1cc(Cn2cc(C(F)(C(F)(F)F)C(F)(F)F)nn2)nn1-c1ncccc1Cl | 4.26
* CCNC(=O)c1cc(C#N)cc(C)c1NC(=O)c1cc(Cn2cc(C(F)(F)F)nn2)nn1-c1ccccc1Cl | 2.92
* Cc1cc(Cl)cc(C(=O)NC(C)C2CC2)c1NC(=O)c1cc(Cn2ncc(C(F)(C(F)(F)F)C(F)(F)F)n2)nn1-c1ncccc1Cl (centres unmarked) | 4.61
* Cc1cc(C#N)cc(C(=O)NC(C)(C)C)c1NC(=O)c1cc(Cn2cc(C(F)(F)F)nn2)nn1-c1ccccc1Cl | 3.48
* Cc1cc(C#N)cc(C(=O)NC(C)(C)C)c1NC(=O)c1cc(Cn2ncc(C(F)(F)F)n2)nn1-c1ccccc1Cl | 3.93
* Cc1cc(C#N)cc(C(=O)NC(C)C)c1NC(=O)c1cc(Cn2cc(C(F)(C(F)(F)F)C(F)(F)F)nn2)nn1-c1ncccc1Cl | 3.44
* Cc1cc(C#N)cc(C(=O)NC(C)C)c1NC(=O)c1cc(Cn2ncc(C(F)(C(F)(F)F)C(F)(F)F)n2)nn1-c1ncccc1Cl | 3.89

## Task Tell me the measured chromatographic logP of Cc1cc(C#N)cc(C(=O)NC(C)(C)C)c1NC(=O)c1cc(Cn2nc3cc(OC(F)(F)F)cc(Br)c3n2)nn1-c1ncccc1Cl , please.
## Result 4.59

## Task Consider next the molecule CC(C)(C)NC(=O)c1cc(Cl)cc(Cl)c1NC(=O)c1cc(Cn2ncc(C(F)(C(F)(F)F)C(F)(F)F)n2)nn1-c1ncccc1Cl in the same way.
## Result 4.53

## Task Consider next the molecule Cc1cc(Cl)cc(C(=O)NCC2CC2)c1NC(=O)c1cc(Cn2cc(C(F)(C(F)(F)F)C(F)(F)F)nn2)nn1-c1ncccc1Cl in the same way.
## Result 3.91

## Task Consider next the molecule Cc1cc(C#N)cc(C(=O)NC(C)C2CC2)c1NC(=O)c1cc(Cn2ncc(C(F)(C(F)(F)F)C(F)(F)F)n2)nn1-c1ncccc1Cl (centres unmarked) in the same way.
## Result 4.2

## Task Consider next the molecule CCNC(=O)c1cc(C#N)cc(C)c1NC(=O)c1cc(Cn2cc(C(F)(F)F)nn2)nn1-c1ncccc1Br in the same way.
## Result 2.88

## Task Consider next the molecule Cc1cc(Cl)cc(C(=O)NCC2CC2)c1NC(=O)c1cc(Cn2ncc(C(F)(C(F)(F)F)C(F)(F)F)n2)nn1-c1ncccc1Cl in the same way.
## Result 4.34

## Task Consider next the molecule CNC(=O)c1cc(Cl)cc(C)c1NC(=O)c1cc(Cn2cc(C(F)(F)F)nn2)nn1-c1ccccc1Cl in the same way.
## Result 3.08

## Task Consider next the molecule Cc1cc(C#N)cc(C(=O)NC(C)C)c1NC(=O)c1cc(Cn2cc(-c3ccc(C(F)(F)F)cc3)nn2)nn1-c1ncccc1Cl in the same way.
## Result 3.39

## Task Consider next the molecule CSC[C@H](C)NC(=O)c1cc(Cl)cc(C)c1NC(=O)c1cc(Cn2ncc(C(F)(C(F)(F)F)C(F)(F)F)n2)nn1-c1ncccc1Cl in the same way.
## Result 4.45
